- SYSTEM UNDER TEST: T1, Human PD-1 expressed on CHO-K1 cells (CHO-K1/hPD-1) (human, UniProt Q15116 25-288)
- T1 construct: whole, on cells; also called CHO-K1 cells overexpressing human PD-1
- T1 sequence (Q15116 25-288): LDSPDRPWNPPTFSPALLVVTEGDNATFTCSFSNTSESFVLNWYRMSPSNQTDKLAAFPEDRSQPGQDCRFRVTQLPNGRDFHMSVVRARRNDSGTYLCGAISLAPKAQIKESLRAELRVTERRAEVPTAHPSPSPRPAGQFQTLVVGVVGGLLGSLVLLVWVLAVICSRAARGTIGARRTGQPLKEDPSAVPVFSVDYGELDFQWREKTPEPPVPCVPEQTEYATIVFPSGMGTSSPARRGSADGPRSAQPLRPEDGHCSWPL
- RUN DESCRIPTION: FACS blocking of biotin-labeled human PD-L2 binding to CHO-K1-hPD-1 cells

# BINDER, Maximum inhibition rate (%)
records = [
    ("PR000674 (antibody, human IgG4 S228P, kappa, V domains shown, Fully human recombinant H2L2 antibody, human IgG4, kappa light chain; also called 4004_12H9C1) VH: QVQLVESGGGVVQPGKSLRLSCTVSGLTFSDNGMHWVRQAPGRGLEWMSVIWYDGSKKYYADSVKGRFTISRDNSKNTLYLQMNNMRVEDTAVYYCATNSDYWGQGTLVTVSS VL: EIVLTQSPATLSLSPGERATLSCRASQSVSSYLAWYQQKPGQAPRLLIYDTSKRATGIPARFSGSGSGTDFTLTISSLEPEDFAVYYCQQHNNWIFTFGPGTKVDIKR", 92.7),
    ("PR000675 (antibody, human IgG4 S228P, kappa, V domains shown, Fully human recombinant H2L2 antibody, human IgG4, kappa light chain; also called 4004_19G8F2) VH: EVQLLESGGGLVQPGGSLRLSCVDSGFTFSSYAMTWVRQAPGKGLEWVSGISGSGYSTYYADSVKGRFTISRDNSKKTLYLQMNSLRAEDTAVYYCAELSLDYWGQGTLVTVSS VL: EIVLTQSPATLSLSPGERATLSCRASQSVSRYLAWYQQKPGQAPRLLMHDAANRATGLPARFNGSGSGTDFTLTISSLEPEDFAVYYCQQRNNWPLTFGGGTKVEIKR", 59.9),
    ("PR000679 (antibody, human IgG4 S228P, kappa, V domains shown, Fully human recombinant H2L2 antibody, human IgG4, kappa light chain; also called 4004_6C11C6) VH: QVQLVQSGTEVKKPGSSVKVSCKASGGTFSSYAISWVRQAPGQGLEWMGGIIPIFDTVSSAQKFQGRVTITADKSTSTAYMELFSLRSEDTAVYYCARSPPYSSNWYQYFQHWGQGTLVTVSS VL: DIQMTQSPSTLSASVGDRVTITCRASQTISIWLAWYQQKPGKAPKLLIYKASSLESGVPSRFSGSGSGTEFTLTISSLQPDDFATYYCQQFNSYWTFGQGTKVEIKR", 80.1),
    ("PR000673 (antibody, human IgG4 S228P, kappa, V domains shown, Fully human recombinant H2L2 antibody, human IgG4, kappa light chain; also called 4004_10H9A12) VH: QVQLVESGGGVVQPGRSLRLSCAASGFIFSNYGMHWVRQAPGKGLEWVAVIWYDGSKKYYGDSVKGRFTISRDNSKNTLYLQMNSLRDEDTAVYFCARNDDYWGQGTLVTVSS VL: EIVLTQSPATLSFSPGERATLSCRASQSVSSDLAWYQQKPGQAPSLLIYDASNRATGIPARFSGSGSGTDFTLTISSLEPEDFAVYYCHQRNNWPLTFGGGTKVEIKR", 90.3),
]
